property name: melting point

Use the examples below as a reference point.
COC1=C[C@@H]2[C@@H]3Cc4c(CN5CCCCC5)cc(OC)c(OC(=O)Cc5ccc(OC)cc5)c4[C@]2(CCN3C)CC1=O ... 121 to 122 °C
COC1=C[C@@H]2[C@@H]3Cc4c(CN5CCCC5)cc(OC)c(OC(=O)Cc5ccc(Cl)cc5)c4[C@]2(CCN3C)CC1=O ... 162 to 165 °C
COC1=C[C@@H]2[C@@H]3Cc4c(CN5CCCC5)cc(OC)c(OC(=O)Cc5ccccc5Cl)c4[C@]2(CCN3C)CC1=O ... 79 to 83 °C
COC1=C[C@@H]2[C@@H]3Cc4c(CN5CCCCC5)cc(OC)c(OC(=O)CCc5ccccc5)c4[C@]2(CCN3C)CC1=O ... 181 to 185 °C
COC1=C[C@@H]2[C@@H]3Cc4c(CN5CCCCC5)cc(OC)c(OC(=O)Cc5cccc(Cl)c5)c4[C@]2(CCN3C)CC1=O ... 164 to 167 °C

melting point reading for `COC1=C[C@@H]2[C@@H]3Cc4c(CN5CCCCC5)cc(OC)c(OC(=O)Cc5ccc(Cl)cc5Cl)c4[C@]2(CCN3C)CC1=O` : 135 to 137 °C

melting point reading for `COC1=C[C@@H]2[C@@H]3Cc4c(CN5CCCCC5)cc(OC)c(OC(=O)Cc5ccccc5C)c4[C@]2(CCN3C)CC1=O` : 177 to 178 °C

melting point reading for `COC1=C[C@@H]2[C@@H]3Cc4c(CN5CCCCC5)cc(OC)c(OC(=O)Cc5ccccc5Cl)c4[C@]2(CCN3C)CC1=O` : 188 to 190 °C

melting point reading for `COC1=C[C@@H]2[C@@H]3Cc4c(CN5CCCC5)cc(OC)c(OC(=O)Cc5ccc(Cl)cc5Cl)c4[C@]2(CCN3C)CC1=O` : 82 to 86 °C
